- target_under_test: human alpha-thrombin (plasma) (Homo sapiens, UniProt P00734;P00734 328-363;364-622)
- protocol_description: MST
pKd: −log10 of the molar value.
Below, each entry is listed alongside its reported pKd.

| binder | pKd |
| --- | --- |
| GGTTGGTGTGGTTGG (structured_DNA, T3: N3-aminoalkyl-dT benzoyl amide) [3Bz] | 7.52 |
| GGTTGGTGTGGTTGG (structured_DNA, T12: N3-propargyl-dT clicked to 1-beta-D-glucopyranosyl azide (printed glycopyranosyl)) [12G] | 7.68 |
| GGTTGGTGTGGTTGG (structured_DNA, T12: N3-carboxymethyl-dT amide with L-phenylalanine) [12Phe] | 7.00 |
| GGTTGGTGTGGTTGG (structured_DNA, T3: N3-carboxymethyl-dT amide with L-alanine) [3Ala] | 7.67 |

Sourced from paper PMC7868722
